experiment.notes: Pharmacokinetics in plasma
Type: in vivo, rats
assay.context: male, Wistar, rat, plasma; rats, iv 1 mg/kg; read-out: λz (converted)
property: k el (s⁻¹)

- molecule: "CCC(CO)NCCOc1c(C)cccc1Cl (stereo not shown)"
  property: "k el"
  endpoint.value: 0.000533

###

experiment.notes: Tissue distribution;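 note: organ homogenates in PBS analysed by HPLC after FMOC-Cl derivatization, non-compartmental analysis, Kp as tissue over plasma AUC, half-life taken as ln2 divided by λz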
Type: in vivo, rats
assay.context: male, Wistar, rat, brain, 5 mg/kg; 2 h after iv administration

- molecule: "CCC(CO)NCCOc1c(C)cccc1Cl (stereo not shown)"
  concentration at 2 h / ng/g: 64.9

###

experiment.notes: Pharmacokinetics in plasma
Assay type: in vivo, rats
assay.context: male, Wistar, rat, plasma; rats, iv 1 mg/kg

- molecule: "CCC(CO)NCCOc1c(C)cccc1Cl (stereo not shown)"
  MRT / min: 51.7
